# System: P388 leukemia ip, CD2F1 mice, survival T/C
# assayComment: NCI In Vivo Anticancer Drug Screen. Data for tumor model P388 Leukemia (intraperitoneal) in CD2F1 (CDF1) mice
# experimentalParameters: endpoint: median survival time; dose: 400.0 mg/kg/injection; schedule: Q04DX003 (ip); vehicle: Klucel (hydroxypropylcellulose) (HPC); higher = longer survival
Toxic doses and inconclusive results are not listed.
Overview of recorded T/C for various compounds

Field: example entries. Status: answers known.
compound=O=C1N=C2SCCN2C1(c1ccccc1)c1ccccc1 measuredresult="103 % of control"
compound=Cn1cnc2cc(N3CCCCC3)c(N)cc2c1=O measuredresult="102 % of control"
compound=CCOC(=O)c1c(C)c2c(n1Cc1ccccc1)CCCC2=O measuredresult="98 % of control"

COc1ccc(C(=O)N=C(N)n2nc(C)cc2C)cc1 yielded T/C of 94 % of control

CN(CCS(=O)(=O)O)/N=C/c1ccc2c(c1)OCO2 yielded T/C of 100 % of control

====

# Tested on: P388 leukemia ip, CD2F1 mice, survival T/C
# assayComment: NCI In Vivo Anticancer Drug Screen. Data for tumor model P388 Leukemia (intraperitoneal) in CD2F1 (CDF1) mice
# experimentalParameters: endpoint: median survival time; dose: 60.0 mg/kg/injection; schedule: Q01DX005 (ip); vehicle: Klucel (hydroxypropylcellulose) (HPC); higher = longer survival
Inconclusive results and toxic doses are left out.
assayEndpoint: T/C

molecule="Cc1ncc(CN2CSC(CCO)C2C)c(N)n1 (centres undefined)" measuredresult="100 % of control"
molecule=COC(=O)/C=C/c1cc(=O)n2c(nc3ccccc32)s1 measuredresult="86 % of control"
molecule=COc1nc(OC)c2cnn(-c3ccc(Cl)cc3)c2n1 measuredresult="89 % of control"

Would you kindly look at the next entry?
COc1ccc(C(c2cc3c(cc2O)OCO3)N2CCCC2)cc1 (centres undefined) yielded T/C of 100 % of control

====

# Test system: P388 leukemia ip, CD2F1 mice, survival T/C
# assayComment: NCI In Vivo Anticancer Drug Screen. Data for tumor model P388 Leukemia (intraperitoneal) in CD2F1 (CDF1) mice
# experimentalParameters: endpoint: median survival time; dose: 100.0 mg/kg/injection; schedule: Q01DX009 (ip); vehicle: Klucel (hydroxypropylcellulose) (HPC); higher = longer survival
# Description: The antitumor activity of compounds was measured in mice bearing transplantable tumors. Survival or tumor size were measured and the results are expressed as the measurement made in the treated group (T) divided by the measurement made in the vehicle treated control group (C). The tumor model used in this assay is P388 Leukemia (intraperitoneal) in CD2F1 (CDF1) mice
Inconclusive results and toxic doses are left out.
Overview of recorded T/C for various compounds

Field: example entries. Status: answers known.
compound=CSC(=S)NS(=O)(=O)c1cccs1 measuredresult="91 % of control"
compound=COc1ccccc1NC(N)=S measuredresult="96 % of control"
compound="COc1cc2c3cc1Oc1c(OC)c(OC)cc4c1C(Cc1ccc(cc1)Oc1cc(ccc1O)CC3N(C)CC2)N(C)CC4 (stereo unspecified)" measuredresult="105 % of control"
compound=Cc1oc(-c2cccc(F)c2)nc1C(N)=O measuredresult="102 % of control"
compound="C=CC(COC(=O)C(C)(C)OC(C)=O)c1ccc(OC(=O)C(C)C)c(OC)c1 (stereo unspecified)" measuredresult="102 % of control"

O=c1/c(=C/c2ccccc2)sc2nc(-c3ccccc3)nn12 yielded T/C of 107 % of control

COC(=O)C(Cc1c[nH]c2ccccc12)NC(=O)C(NC(=O)OC(C)(C)C)C(C)C (stereo unspecified) yielded T/C of 99 % of control

CN(C)CC(OCCc1ccccc1)C(Cl)(Cl)Cl (stereo unspecified) yielded T/C of 109 % of control

Cc1ccc(C)c(NC(=O)Nc2ccccc2C(N)=O)c1 yielded T/C of 113 % of control

O=C(OCCCN1CCCC1)C(c1ccccc1)C1C=CCC1 (stereo unspecified) yielded T/C of 95 % of control

O=P(c1ccccc1)(c1ccccc1)C(O)c1ccncc1 (stereo unspecified) yielded T/C of 103 % of control

====

# Tested on: P388 leukemia ip, CD2F1 mice, survival T/C
# assayComment: NCI In Vivo Anticancer Drug Screen. Data for tumor model P388 Leukemia (intraperitoneal) in CD2F1 (CDF1) mice
# experimentalParameters: endpoint: median survival time; dose: 25.0 mg/kg/injection; schedule: Q01DX009 (ip); vehicle: saline with Tween-80; higher = longer survival
# Description: The antitumor activity of compounds was measured in mice bearing transplantable tumors. Survival or tumor size were measured and the results are expressed as the measurement made in the treated group (T) divided by the measurement made in the vehicle treated control group (C). The tumor model used in this assay is P388 Leukemia (intraperitoneal) in CD2F1 (CDF1) mice
Toxic doses and inconclusive results are not listed.
assayEndpoint: T/C

CN1C(=O)CC(Sc2ccccc2)c2ccccc21 (stereo unspecified) yielded T/C of 96 % of control

C=CCNC(=S)N/N=C/c1nccc(-c2ccccc2)c1C yielded T/C of 112 % of control

O=CC(Br)C(Br)c1ccccc1 (stereo unspecified) yielded T/C of 100 % of control

CC(=O)c1ccccc1C(C)C yielded T/C of 100 % of control

CC1(c2cccs2)NC(=O)NC1=O (stereo unspecified) yielded T/C of 100 % of control

CCOC(=O)C1Cc2c([nH]c(=O)[nH]c2=O)OC1c1cccc(Cl)c1 (stereo unspecified) yielded T/C of 100 % of control

CCOC(=O)c1ccc2[nH]c(-c3ccc(S(=O)(=O)F)cc3)cc(=O)c2c1 yielded T/C of 93 % of control

CCOC(=O)c1c[nH][nH]c1=O yielded T/C of 95 % of control

CN(CCC#N)c1ccc(/C=C(\C#N)C(N)=O)cc1 yielded T/C of 97 % of control

C/C=C/C(=O)Nc1cccc(OC(=O)NC(C)(C)C)c1 yielded T/C of 101 % of control

CCC/C=C1\OC(=O)c2ccccc21 yielded T/C of 100 % of control

CCCCCN(CCCCC)c1nsc(Cl)n1 yielded T/C of 108 % of control

====

# Tested on: P388 leukemia ip, CD2F1 mice, survival T/C
# assayComment: NCI In Vivo Anticancer Drug Screen. Data for tumor model P388 Leukemia (intraperitoneal) in CD2F1 (CDF1) mice
# experimentalParameters: endpoint: median survival time; dose: 100.0 mg/kg/injection; schedule: Q01DX005 (ip); vehicle: Klucel (hydroxypropylcellulose) (HPC); higher = longer survival
Toxic doses and inconclusive results are not listed.
assayEndpoint: T/C

Field: example entries. Status: answers known.
molecule=COc1c(C)n(CCCCCCn2ccc(=O)c(OC)c2C)ccc1=O measuredresult="108 % of control"
molecule=COc1cc(CCN=Cc2cc(Cl)cc(Cl)c2O)c([N+](=O)[O-])cc1OC measuredresult="102 % of control"

Would you kindly look at the next entry?
CC(C)CC(NC1=CC(=O)N(c2ccccc2)C1c1ccccc1)c1nc2ccccc2[nH]1 (centres undefined) yielded T/C of 95 % of control

====

# System: P388 leukemia ip, CD2F1 mice, survival T/C
# assayComment: NCI In Vivo Anticancer Drug Screen. Data for tumor model P388 Leukemia (intraperitoneal) in CD2F1 (CDF1) mice
# experimentalParameters: endpoint: median survival time; dose: 50.0 mg/kg/injection; schedule: Q01DX009 (ip); vehicle: saline with Tween-80; higher = longer survival
Toxic doses and inconclusive results are not listed.
assayEndpoint: T/C

Field: example entries. Status: answers known.
molecule="Cc1ccc(C)c(C2NC(=O)c3ccccc3N2)c1 (configuration not stated)" measuredresult="104 % of control"
molecule=O=c1nc(Oc2ccccc2)nc2ncccn12 measuredresult="114 % of control"
molecule="CC1=NN(C(=O)c2ccncc2)C(=O)C1N=Nc1c(C)n(C)n(-c2ccccc2)c1=O (configuration not stated)" measuredresult="102 % of control"

Would you kindly look at the next entry?
O=[N+]([O-])c1cnc(-c2ccc(F)cc2)n1CCO yielded T/C of 100 % of control

====

Overview of recorded T/C for various compounds
# Tested on: P388 leukemia ip, CD2F1 mice, survival T/C
# assayComment: NCI In Vivo Anticancer Drug Screen. Data for tumor model P388 Leukemia (intraperitoneal) in CD2F1 (CDF1) mice
# experimentalParameters: endpoint: median survival time; dose: 200.0 mg/kg/injection; schedule: Q01DX009 (ip); vehicle: saline with Tween-80; higher = longer survival
Inconclusive results and toxic doses are left out.

Field: example entries. Status: answers known.
compound=CN(C)c1nc(NO)nc(N(C)C)n1 assayendpoint=T/C measuredresult="112 % of control"
compound=O=[N+]([O-])c1ccc(C=Nc2ccccc2)cc1 assayendpoint=T/C measuredresult="97 % of control"
compound="O=C1NN=C2CCCCCCCCCCC12 (centres undefined)" assayendpoint=T/C measuredresult="89 % of control"

Would you kindly look at the next entry?
CCOC(=O)C(=CNc1ccccn1)C(=O)OCC yielded T/C of 100 % of control
